Consider the following binders and their measured glycan array binding signal (z-score) readings.
target.entity: Gal(b1-4)GlcNAc
assay: glycan array binding signal (z-score within array); higher = stronger binding
setup.conditions: glycan notation: IUPAC condensed, linker removed
The entries come from a sample that favours the strongest signals as a whole.
Number, no unit, nothing else.

binder	glycan array binding signal (z-score)
MGL (Homo sapiens), Q8IUN9 (protein) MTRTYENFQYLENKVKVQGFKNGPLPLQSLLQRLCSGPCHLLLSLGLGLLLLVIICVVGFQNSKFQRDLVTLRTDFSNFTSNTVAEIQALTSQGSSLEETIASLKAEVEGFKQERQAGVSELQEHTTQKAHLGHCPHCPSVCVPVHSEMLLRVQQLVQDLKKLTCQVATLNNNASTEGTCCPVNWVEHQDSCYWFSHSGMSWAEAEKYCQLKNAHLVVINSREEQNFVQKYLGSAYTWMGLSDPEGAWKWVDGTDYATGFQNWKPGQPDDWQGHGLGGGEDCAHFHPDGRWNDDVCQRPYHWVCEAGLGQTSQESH	-0.243

Give its glycan array binding signal (z-score) value. Item: CFEM-PPm (Pichia pastoris), F2QPV1 (protein) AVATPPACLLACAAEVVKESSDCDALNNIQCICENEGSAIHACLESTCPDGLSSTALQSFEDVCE -0.105

For XL-35 (Xenopus laevis) (protein) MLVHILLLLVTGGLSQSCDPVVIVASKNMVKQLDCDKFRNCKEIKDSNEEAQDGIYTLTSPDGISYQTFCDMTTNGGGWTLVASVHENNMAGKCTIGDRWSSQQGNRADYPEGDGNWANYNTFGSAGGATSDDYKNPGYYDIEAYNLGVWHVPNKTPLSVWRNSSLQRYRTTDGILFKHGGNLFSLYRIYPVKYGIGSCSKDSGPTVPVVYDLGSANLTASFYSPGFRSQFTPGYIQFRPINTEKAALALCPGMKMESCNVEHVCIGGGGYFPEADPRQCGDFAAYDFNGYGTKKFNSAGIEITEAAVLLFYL then? -0.066
